target: CYP2C8 (Homo sapiens, UniProt P10632); assay: in vitro; conditions: pooled liver microsomes, pH 7.4, probe amodiaquine
Sequence (P10632 whole entry): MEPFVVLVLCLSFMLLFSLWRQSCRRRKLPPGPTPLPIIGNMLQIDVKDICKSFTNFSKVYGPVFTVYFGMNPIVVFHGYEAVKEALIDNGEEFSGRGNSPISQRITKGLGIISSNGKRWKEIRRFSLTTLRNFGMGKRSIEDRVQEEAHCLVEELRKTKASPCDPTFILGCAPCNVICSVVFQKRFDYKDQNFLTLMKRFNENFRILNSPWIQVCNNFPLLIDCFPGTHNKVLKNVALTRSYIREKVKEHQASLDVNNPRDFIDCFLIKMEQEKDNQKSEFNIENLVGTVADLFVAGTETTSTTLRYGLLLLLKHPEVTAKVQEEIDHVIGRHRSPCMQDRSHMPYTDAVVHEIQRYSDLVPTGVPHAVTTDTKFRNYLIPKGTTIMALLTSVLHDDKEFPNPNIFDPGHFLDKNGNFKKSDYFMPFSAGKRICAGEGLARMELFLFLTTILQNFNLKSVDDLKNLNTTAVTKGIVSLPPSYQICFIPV
PARAMETER: inhibition at 30 min, 10 µM
Please answer using a numeric value trailed by its unit.

The reported CYP2C8 (Homo sapiens, UniProt P10632) inhibition at 30 min, 10 µM of O=c1c(O)c(-c2ccc(O)c(O)c2)oc2cc(O)cc(O)c12 [Quercetin, reference compound] is 88.3%

====

System: cynomolgus monkey hepatocytes
Test: Hepatocyte stability, cynomolgus monkey
Type: in vitro ADME
Conditions: 2 μM, 0.5 million cells/ml
Protocol: In this study, human, cynomolgus monkey, beagle dog, wistar hannover rat, and balb/c mouse hepatocyle stability was determined.
Record form. Attribute: T1/2. Fill in for each entry.
Please reply with the bare figure in h and do not write the unit itself.

cynomolgus monkey hepatocytes data for CCS(=O)(=O)Nc1cccc(Cc2c(CN(C)C)c3ccc(OC(=O)N(C)C)cc3oc2=O)c1F [Compound 120] ; its T1/2: 1.2

Item: CCCS(=O)(=O)Nc1cccc(Cc2c(CN3CCNCC3)c3cc(Cl)c(OC(=O)N(C)C)cc3oc2=O)c1F [Compound 167] | System: cynomolgus monkey hepatocytes | T1/2: 1.12

// molecule CNS(=O)(=O)Nc1cccc(Cc2c(CN(C)C)c3cc(F)c(OC(=O)N(C)C)cc3oc2=O)c1F [Compound 25] , assay cynomolgus monkey hepatocytes, T1/2 value: 6.33

The reported cynomolgus monkey hepatocytes T1/2 of CNS(=O)(=O)Nc1cccc(Cc2c(CN3CCNCC3)c3cc(F)c(OC(=O)N(C)C)cc3oc2=O)c1F [Compound 134] is 5.73

Reported cynomolgus monkey hepatocytes T1/2 for item CNS(=O)(=O)Nc1cccc(Cc2c(CN(C)C)c3ccc(OC(=O)N(C)C)cc3oc2=O)c1F [Compound 9] was 1.7

CNS(=O)(=O)Nc1nccc(Cc2c(CN(C)C)c3ccc(OC(=O)N(C)C)cc3oc2=O)c1F [Compound 124] tested on cynomolgus monkey hepatocytes gave T1/2: 1.95
